# reported EC50; entries follow
target: SARS-CoV-2-S1 (RBD)-His protein (Trenzyme) (SARS-CoV-2, UniProt P0DTC2 319-541); experiment: direct ELISA on coated RBD-His
Measured parameter: EC50 (pM)

INSERT INTO assay_data (binder, measured_parameter, val) VALUES
  ('NI-607.429_E4 (antibody, V domains shown) VH: QVQLVESGGGLVQPGGSLRLSCAASGFTVSSNYMSWVRQAPGKGLEWVSVIYSGGSTFYADSVKGRFTISRDNSKNTLYLQMNSLRAEDTAVYYCARDLQESGMDVWGQGTTVTVSS VL: DIQLTQSPSSVSASVGDRVTITCRASQGISSWLAWYQQKPGKAPKLLIYAASSLQSGVPSRFSGSGSGTDFTLTISSLQPEDFATYYCQQANSFPTFGQGTRLEIK', 'EC50', 8.6),
  ('NI-607.649_B11 (antibody, V domains shown) VH: QVQLVQSGAEVKKPGSSVKVSCKASGGTFSNYAISWVRQAPGQGLEWMGGIIPIFGTANYAQKFQGRVTITADESTSTAYMELSSLRSEDTAVYYCAGDRWYYDSSGYPTPDEYFQHWGQGTQVTVSS VL: QSVLTQPPSVSGAPGQRVTISCTGSSSNIGAGYDVHWYQQLPGTAPKLLIYGNSNRPSGVPDRFSGSKSGTSASLAITGLQAEDEADYYCQSYDSSLSGVVFGGGTKLTVL', 'EC50', 27),
  ('NI-607.426_F11 (antibody, V domains shown) VH: QVQLVESGGGLVQPGGSLRLSCAASGFTFSSYWMSWVRQAPGKGLEWVANIKQDGSEKYYVDSVKGRFTISRDNAKNSLYLQMNSLRAEDTAVYYCARGLVGQWLGVDYWGQGTLVTVSS VL: QSVLTQPHSVSESPGKTVTISCTGSSGSIASNYVQWYQQRPGSAPTTVIYEDNQRPSGVPDRFSGSIDSSSNSASLTISGLKTEDEADYYCQSYDSSNWVFGGGTKLTVL', 'EC50', 17),
  ('NI-607.532_C11 (antibody, V domains shown) VH: QVQLVESGGGLIQPGGSLRLSCAASGFTVSSNYMSWVRQAPGKGLEWVSVIYSGGSTYYADSVKGRFTISRDNSKNTLFLQMNSLRAEDTAVYYCARDLQYYGMDVWGQGTTVTVSS VL: DIQMTQSPSFLSASVGDRVTITCRASQGISSYLAWYQQKPGKAPKLLIYAASTLQSGVPSRFSGSGSGTEFTLTISSLQPEDFATYYCQQLDSYPPRDTFGQGTKVEIK', 'EC50', 13),
  ('NI-607.274_B7 (antibody, V domains shown) VH: QVQLVESGGGRVQPGRSLRLSCAASGFTFSTHGMHWVRQVPGKGLDWITGITYDGSDQFYADSVKGRFTISRDNSKNMLYLQMNSLRAEDTAVYFCAKDLEWLTNYLDHWGQGTLVTVSS VL: DVVMTQSPGTLSVSPGERATLSCRASQNINYNLAWYQQKPGQAPRLLIFDASTRATGIPARFTGSGSGTEFTLTISSLQSEDFAVYYCQQSNAWLTFGGGTKVEIK', 'EC50', 21),
  ('NI-607.532_B6 (antibody, V domains shown) VH: QVQLVQSGAEVKKPGASVKVSCKASGYTFTSYDINWVRQATGQGLEWMGWMNPNSGNTGYAQKFQGRVTMTRNTSISTAYMELSSLRSEDTAVYYCARVVSLTGFFDYWGQGTLVTVSS VL: SYELTQPPSVSVAPGKTARITCGGNNIGSKNVHWYQQKPGQAPVLVVYDDSDRPSGIPERFSGSNSGNTATLTISRVEAGDEADYYCQVWDSSSDPWVFGGGTKLTVL', 'EC50', 4.5),
  ('NI-607.531_D8 (antibody, V domains shown) VH: EVQLVESGGGLVQPGRSLRLSCAASGFIFDDYAMHWVRQAPGKGLEWVSGISWNSDSIGYADSVKGRFTISRDNAKNSLYLQMNSLRAEDTALYYCAKGSRSDWSNPSDYWGQGTLVTVSS VL: SYELTQPPSVSVAPGKTARITCGGNNIGSKSVHWYQQKPGQAPVLVVYDDSDRPSGIPERFSGSNSGNTATLTISRVEAGDEADYYCQVWDSSSDPVVFGGGTKLTVL', 'EC50', 4.5),
  ('NI-607.791_B10 (antibody, V domains shown) VH: QVQLQQWGAGLLKPSETLSRTCAVYGGSFSDYYWSWIRQPPGKGLEWIGEVNHRGVTNYNPSLKSRVTISIDTSKSQFSLELRSVTDADTALYFCARSPFWTIAARPFDYWGRGTLVTVSS VL: EIVMTQSPGTLSLSPGERATLSCRASQSVISNYLAWYQQKPGQAPRFLIYAASTRARGIPDRFSGSGSGTDFTLTISRLEAEDFAVYYCQQYGNSPLTFGGGTKLEIK', 'EC50', 62),
  ('NI-607.529_B9 (antibody, V domains shown) VH: QVQLQESGPGLVKPSETLSLTCTVSGGSISSSSYYWGWIRQPPGKGLEWIGNIYYSGSTYYNPSLKSRVTISVDTSKNQFSLKLNSVTAADTAVYFCARLLWLRGSYYWGQGTLVTVSS VL: SYELTQPHSVSESPGKTVTISCTGSSGSIASNYVQWYQQRPGSAPTTVIYEDNQRPSGVPDRFSGSIDSSSNSASLTISGLKTEDEADYYCQSYDSSNWVFGGGTKLTVL', 'EC50', 34),
  ('NI-607.274_E5 (antibody, V domains shown) VH: EVQLVESGGGMVQPGRSLRLSCAGSGFTFSTHGMHWVRQAPGKGLEWITGITYDGSDEFYADSVKGRFTIARDNSKNMLYLQMNSLRAEDTAVYFCAKDLEWLTNYVDHWGQGTLVTVSS VL: DIVMTQSPGTLSVSPGERATLSCRASQSVNYNLAWYQQKPGQAPRLLIFDASTRATGIPARFTGSGSGTEFTLTISSLQSEDFAVYYCQQSNAWLTFGGGTKLEIK', 'EC50', 15);

Data credit: patent US20230242624A1
